- TARGET OR SYSTEM: Muscarinic acetylcholine receptor M2 (Homo sapiens, UniProt P08172)
Would you mind telling me the reported pKi of each entry?
Answers are plain numbers, as −log10 of the molar value.

COMPOUND | TARGET OR SYSTEM | READING
CC(C)=CCCN1CCC(NC(=O)[C@](O)(c2ccccc2)C2CCCC2)CC1 | Muscarinic acetylcholine receptor M2 (Homo sapiens, UniProt P08172) | 6.31
O=C(NC1CCN(Cc2cccc(F)c2)CC1)[C@](O)(c1ccccc1)[C@@H]1CCC(F)(F)C1 | Muscarinic acetylcholine receptor M2 (Homo sapiens, UniProt P08172) | 6.32
Nc1cccc(CN2CCC(NC(=O)[C@](O)(c3ccccc3)[C@@H]3CCC(F)(F)C3)CC2)c1 | Muscarinic acetylcholine receptor M2 (Homo sapiens, UniProt P08172) | 6.48
Cc1cccc(CN2CCC(NC(=O)C(O)(c3ccccc3)C3CCCC3)CC2)c1 (centres undefined) | Muscarinic acetylcholine receptor M2 (Homo sapiens, UniProt P08172) | 7.15
Cc1cc(CN2CCC(NC(=O)C(O)(c3ccccc3)C3CCCC3)CC2)cs1 (centres undefined) | Muscarinic acetylcholine receptor M2 (Homo sapiens, UniProt P08172) | 7.62

Go through the items and report each one's pKi.
1. CC(C)=CCCN1CCC(NC(=O)[C@](O)(c2ccccc2)[C@H]2CC[C@H](F)C2)CC1
2. O=C(NC1CCN(Cc2cccnc2)CC1)C(O)(c1ccccc1)C1CCCC1 (centres undefined)
3. O=C(NC1CCN(Cc2ccccc2)CC1)[C@](O)(c1ccccc1)[C@@H]1CCC(F)(F)C1
4. O=C(NC1CCN(CC2CCCCCC2)CC1)[C@](O)(c1ccccc1)[C@@H]1CCC(F)(F)C1
5. CC(C)=CCCN1CCC(NC(=O)[C@](O)(c2ccccc2)[C@H]2CC[C@@H](F)C2)CC1
6. O=C(NC1CCN(Cc2ccccn2)CC1)[C@](O)(c1ccccc1)[C@@H]1CCC(F)(F)C1
7. Cc1cccc(CN2CCC(NC(=O)C(O)(c3ccccc3)C3CCCC3)CC2)n1 (centres undefined)
8. O=C(NC1CCN(CC2CCCCCCC2)CC1)C(O)(c1ccccc1)C1CCCC1 (centres undefined)

5.89
5.34
6.59
4.77
5.64
5.62
5.62
5.03

Go through the items and report each one's pKi.
1. O=C(NC1CCN(Cc2cccc(CO)c2)CC1)[C@](O)(c1ccccc1)[C@@H]1CCC(F)(F)C1
2. O=C(NC1CCN(CC2CCCCC2)CC1)C(O)(c1ccccc1)C1CCCC1 (centres undefined)
3. Cc1ccccc1CN1CCC(NC(=O)C(O)(c2ccccc2)C2CCCC2)CC1 (centres undefined)
4. O=C(NC1CCN(Cc2ccsc2)CC1)C(O)(c1ccccc1)C1CCCC1 (centres undefined)
5. O=C(NC1CCN(CC2CCCCC2)CC1)[C@](O)(c1ccccc1)[C@@H]1CCC(F)(F)C1

5.16
5.48
4.43
7.10
4.68

What measured pKi goes with "NCc1cccc(CN2CCC(NC(=O)[C@](O)(c3ccccc3)[C@@H]3CCC(F)(F)C3)CC2)c1" ?
5.47

###

- TARGET OR SYSTEM: Muscarinic acetylcholine receptor M2 (Homo sapiens)
- Sequence (P08172 whole entry): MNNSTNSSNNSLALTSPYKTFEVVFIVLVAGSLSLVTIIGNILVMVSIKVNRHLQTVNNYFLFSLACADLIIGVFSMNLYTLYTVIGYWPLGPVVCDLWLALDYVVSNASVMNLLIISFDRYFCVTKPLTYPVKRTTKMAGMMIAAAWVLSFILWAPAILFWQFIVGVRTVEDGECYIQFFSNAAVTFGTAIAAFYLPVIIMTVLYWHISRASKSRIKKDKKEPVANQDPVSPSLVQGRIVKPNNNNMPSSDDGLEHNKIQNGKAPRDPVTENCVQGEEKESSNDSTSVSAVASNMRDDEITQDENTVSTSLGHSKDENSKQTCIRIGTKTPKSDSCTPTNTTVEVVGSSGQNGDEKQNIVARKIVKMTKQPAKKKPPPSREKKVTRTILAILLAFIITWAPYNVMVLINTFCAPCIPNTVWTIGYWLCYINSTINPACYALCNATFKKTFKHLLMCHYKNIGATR
- ASSAY INFO: Inhibition of [3H]NMS binding to human muscarinic acetylcholine receptor M2 expressed in CHO cells
- Type: cell-based
Rule for this label: true means Ki is less than 900 nM; false means Ki is at least 900 nM.

MOLECULE | CAT
COc1cccc(CN2CCC(NC(=O)C(O)(c3ccccc3)C3CCCC3)CC2)c1 (stereo not drawn) | true
Cc1ccc(CN2CCC(NC(=O)C(O)(c3ccccc3)C3CCCC3)CC2)cc1 (stereo not drawn) | true
CC(C)=CCCN1CCC(NC(=O)[C@](O)(c2ccccc2)[C@H]2CCC(F)(F)C2)CC1 | false
O=C(NC1CCN(Cc2cccc(O)c2)CC1)[C@](O)(c1ccccc1)[C@@H]1CCC(F)(F)C1 | true
O=C(NC1CCN(CC2CCCCCC2)CC1)C(O)(c1ccccc1)C1CCCC1 (stereo not drawn) | false
Nc1cccc(CN2CCC(NC(=O)[C@](O)(c3ccccc3)[C@@H]3CCC(F)(F)C3)CC2)n1 | true
Nc1ccc(CN2CCC(NC(=O)[C@](O)(c3ccccc3)[C@@H]3CCC(F)(F)C3)CC2)nc1 | false

Pending molecule:
For this molecule, is Ki lower than 900 nM? "Nc1ccc(CN2CCC(NC(=O)[C@](O)(c3ccccc3)[C@@H]3CCC(F)(F)C3)CC2)cc1F"
true
